target or test system: human TAS2R1 (Homo sapiens)
Construct: expressed in transfected cells; host or cells: HEK293T-Gα16gust44
Sequence (Q9NYW7 whole entry): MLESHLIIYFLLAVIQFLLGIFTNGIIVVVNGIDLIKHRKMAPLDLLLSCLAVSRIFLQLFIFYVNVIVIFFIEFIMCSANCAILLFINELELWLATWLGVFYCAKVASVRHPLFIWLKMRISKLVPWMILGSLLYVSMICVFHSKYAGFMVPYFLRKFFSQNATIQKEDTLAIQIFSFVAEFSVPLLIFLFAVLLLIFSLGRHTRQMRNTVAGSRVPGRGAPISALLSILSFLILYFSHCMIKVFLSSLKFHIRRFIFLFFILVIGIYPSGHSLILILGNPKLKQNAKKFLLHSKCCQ
test method notes: Calcium imaging assay (FLIPR), HEK293T-Gα16gust44 cells transfected with human TAS2R1
Format: cell-based
stated conditions: Time 60.781 s
recorded endpoint: RLU (RLU)
Give bare numbers, in RLU.

Use these answered entries as a reference point.
[
  {
    "compound structure": "C[C@H](CCC(=O)NCC(=O)O)[C@H]1CC[C@H]2[C@@H]3[C@H](O)C[C@@H]4C[C@H](O)CC[C@]4(C)[C@H]3C[C@H](O)[C@]12C",
    "recorded endpoint": "RLU",
    "measured value": 617.101
  },
  {
    "compound structure": "C[C@H](CCC(=O)NCCS(=O)(=O)O)[C@H]1CC[C@H]2[C@@H]3[C@H](O)C[C@@H]4C[C@H](O)CC[C@]4(C)[C@H]3C[C@H](O)[C@]12C",
    "recorded endpoint": "RLU",
    "measured value": 390.107
  },
  {
    "compound structure": "C[C@H](CCC(=O)O)[C@H]1CC[C@H]2[C@@H]3CC[C@@H]4C[C@H](O)CC[C@]4(C)[C@H]3C[C@H](O)[C@]12C",
    "recorded endpoint": "RLU",
    "measured value": 378.237
  }
]

Proceeding to the next compound to report its RLU.
Q: Notebook: pull reported RLU for human TAS2R1 (Homo sapiens), entry C[C@H](CCC(=O)NCCS(=O)(=O)O)[C@H]1CC[C@H]2[C@@H]3CC[C@@H]4C[C@H](O)CC[C@]4(C)[C@H]3CC[C@]12C
Result: 676.887

Value source: paper PMC10247784
